experiment: in vitro; conditions: human
pIC50: −log10 of the molar value.
Give measured pIC50 for each item. Keep answers brief.

Answered cases to consult:
> print(dat)
                                   molecule  observedproperty  endpointvalue
1  C[C@H]1[C@@H](OCC2CCC(C(=O)O)O2)O[C@@H]2O[C@@]3(C)CC[C@H]4[C@H](C)CC[C@@H]1[C@@]24OO3 (stereo partly drawn)             pIC50         < 4.70
2  C[C@H]1[C@@H](OCc2ccc(C(=O)NC34CCC(C(=O)O)(C3)C4)cc2)O[C@@H]2O[C@@]3(C)CC[C@H]4[C@H](C)CC[C@@H]1[C@@]24OO3             pIC50         < 4.70

Note: attention shifts to another entry.
-- ask // returns reported pIC50 for input "C[C@H]1[C@@H](Oc2ccc(CC(=O)N[C@@H]3CC[C@H](C(=O)O)C3)cc2)O[C@@H]2O[C@@]3(C)CC[C@H]4[C@H](C)CC[C@@H]1[C@@]24OO3"
-- reply < 4.70
